target: Stromelysin-1 (Homo sapiens, UniProt P08254); test: Inhibition of human recombinant MMP3
Sequence (P08254 whole entry): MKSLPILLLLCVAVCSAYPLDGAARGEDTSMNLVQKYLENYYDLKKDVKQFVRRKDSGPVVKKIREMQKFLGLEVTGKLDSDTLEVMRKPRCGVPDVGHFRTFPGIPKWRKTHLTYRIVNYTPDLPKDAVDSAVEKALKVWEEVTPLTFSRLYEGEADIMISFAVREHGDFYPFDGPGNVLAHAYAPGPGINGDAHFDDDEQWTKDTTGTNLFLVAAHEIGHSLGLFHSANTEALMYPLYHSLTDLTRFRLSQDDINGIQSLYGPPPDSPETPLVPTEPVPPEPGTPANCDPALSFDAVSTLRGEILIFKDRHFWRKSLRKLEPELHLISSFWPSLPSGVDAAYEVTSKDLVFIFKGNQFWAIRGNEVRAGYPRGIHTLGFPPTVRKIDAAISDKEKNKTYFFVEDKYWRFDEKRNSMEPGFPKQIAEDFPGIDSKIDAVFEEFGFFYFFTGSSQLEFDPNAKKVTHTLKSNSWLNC
pIC50: −log10 of the molar value.

compound | pIC50
O=C(O)CC(O)CCc1ccc(-c2ccccc2)cc1 (stereo in doubt) | < 4.01
O=C(O)CC(O)CCc1ccc(-c2ccccc2)cc1 (single isomer, unassigned) | < 4.01
O=C(O)CC(O)CCc1ccc(-c2ccccc2)cc1 (racemic) | < 4.01

====

target: Macrophage metalloelastase (Homo sapiens); test: Inhibition of human recombinant MMP12
Sequence (P39900 whole entry): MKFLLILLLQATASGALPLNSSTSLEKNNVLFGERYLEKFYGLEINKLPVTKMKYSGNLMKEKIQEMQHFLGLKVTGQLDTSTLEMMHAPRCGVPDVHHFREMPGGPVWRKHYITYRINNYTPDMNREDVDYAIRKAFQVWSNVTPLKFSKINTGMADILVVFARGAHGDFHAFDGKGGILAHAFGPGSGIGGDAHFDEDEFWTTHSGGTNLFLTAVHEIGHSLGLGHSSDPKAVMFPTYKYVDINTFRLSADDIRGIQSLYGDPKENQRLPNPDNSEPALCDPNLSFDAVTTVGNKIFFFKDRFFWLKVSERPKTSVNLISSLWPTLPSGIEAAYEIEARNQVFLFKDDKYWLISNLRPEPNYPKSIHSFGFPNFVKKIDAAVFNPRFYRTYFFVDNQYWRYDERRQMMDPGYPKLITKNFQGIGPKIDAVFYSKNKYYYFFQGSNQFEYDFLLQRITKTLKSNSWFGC

molecule | system tested | IC50 / µM
O=C(O)CS(=O)(=O)CCc1ccc(-c2ccccc2)cc1 | Macrophage metalloelastase (Homo sapiens) | 2.49
O=C(O)CC(O)CCc1ccc(-c2ccc(Oc3ccccc3)cc2)cc1 (stereo unspecified) | Macrophage metalloelastase (Homo sapiens) | 19.9
N#Cc1cccc(-c2ccc(CCC(O)CC(=O)O)cc2)c1 (stereo unspecified) | Macrophage metalloelastase (Homo sapiens) | 3.39
O=C(O)CC(O)CCc1ccc(-c2ccc(OCc3ccccc3)cc2)cc1 (stereo unspecified) | Macrophage metalloelastase (Homo sapiens) | 3.75
O=C(O)CC(=O)CCc1ccc(-c2ccccc2)cc1 | Macrophage metalloelastase (Homo sapiens) | 7.84
O=C(O)CC(O)CCc1ccc(-c2ccc3c(c2)oc2ccccc23)cc1 (stereo unspecified) | Macrophage metalloelastase (Homo sapiens) | 20.1
O=C(O)CC(O)CCc1ccc(-c2ccncc2)cc1 (stereo unspecified) | Macrophage metalloelastase (Homo sapiens) | 0.055
N#Cc1ccc(-c2ccc(CCC(O)CC(=O)O)cc2)cc1 (stereo unspecified) | Macrophage metalloelastase (Homo sapiens) | 0.086
O=C(O)C[S+]([O-])CCc1ccc(-c2ccccc2)cc1 (stereo unspecified) | Macrophage metalloelastase (Homo sapiens) | 4.5
O=C(O)CC(O)CCc1ccc(-c2ccccc2)cc1 (stereo in doubt) | Macrophage metalloelastase (Homo sapiens) | 0.79
CSc1ccc(-c2ccc(CCC(O)CC(=O)O)cc2)cc1 (stereo unspecified) | Macrophage metalloelastase (Homo sapiens) | 0.058

====

target: Disintegrin and metalloproteinase domain-containing protein 17 (Homo sapiens, UniProt P78536); test: Inhibition of human recombinant TACE
Sequence (P78536 whole entry, the tested form may be a part): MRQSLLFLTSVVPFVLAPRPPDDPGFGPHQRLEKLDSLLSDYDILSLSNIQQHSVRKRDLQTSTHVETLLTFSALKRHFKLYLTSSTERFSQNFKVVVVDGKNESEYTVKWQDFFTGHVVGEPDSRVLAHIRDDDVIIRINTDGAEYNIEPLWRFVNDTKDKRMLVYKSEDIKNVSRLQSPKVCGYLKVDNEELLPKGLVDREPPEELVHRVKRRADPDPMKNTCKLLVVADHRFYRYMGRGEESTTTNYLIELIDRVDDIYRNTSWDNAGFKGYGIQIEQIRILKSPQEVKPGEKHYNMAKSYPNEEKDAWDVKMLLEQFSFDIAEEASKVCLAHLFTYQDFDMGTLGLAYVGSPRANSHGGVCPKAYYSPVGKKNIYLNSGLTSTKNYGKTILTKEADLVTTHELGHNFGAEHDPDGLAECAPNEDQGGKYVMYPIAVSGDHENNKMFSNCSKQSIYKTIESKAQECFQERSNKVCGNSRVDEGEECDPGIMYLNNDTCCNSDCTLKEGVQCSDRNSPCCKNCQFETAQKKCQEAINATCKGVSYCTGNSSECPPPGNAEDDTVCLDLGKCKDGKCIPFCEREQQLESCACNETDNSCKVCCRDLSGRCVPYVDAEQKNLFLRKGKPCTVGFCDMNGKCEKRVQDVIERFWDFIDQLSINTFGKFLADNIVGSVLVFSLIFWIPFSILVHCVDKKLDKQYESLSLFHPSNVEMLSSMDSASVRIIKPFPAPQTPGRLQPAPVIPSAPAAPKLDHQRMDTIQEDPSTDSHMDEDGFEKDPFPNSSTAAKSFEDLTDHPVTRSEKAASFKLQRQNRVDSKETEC
pIC50: −log10 of the molar value.
Overview of reported pIC50 across a group of molecules:

molecule | pIC50
O=C(O)CC(O)CCc1ccc(-c2ccccc2)cc1 (single isomer, unassigned) | < 4.01
O=C(O)CC(O)CCc1ccc(-c2ccccc2)cc1 (racemic) | < 4.01
O=C(O)CC(O)CCc1ccc(-c2ccccc2)cc1 (stereo in doubt) | < 4.01

====

target: Macrophage metalloelastase (Homo sapiens); assay: Inhibition of human recombinant MMP12
pIC50: −log10 of the molar value.
readout: pIC50

compound | system tested | readout | observed result
CC(=O)OC(CCc1ccc(-c2ccccc2)cc1)CC(=O)O (stereo not given) | Macrophage metalloelastase (Homo sapiens) | pIC50 | 4.26
O=C(O)CC(O)CCc1ccc(-c2cc3ccccc3o2)cc1 (stereo not given) | Macrophage metalloelastase (Homo sapiens) | pIC50 | 6.74
COC(CCc1ccc(-c2ccccc2)cc1)CC(=O)O (stereo not given) | Macrophage metalloelastase (Homo sapiens) | pIC50 | 5.45
O=C(O)CSCCc1ccc(-c2ccccc2)cc1 | Macrophage metalloelastase (Homo sapiens) | pIC50 | 4.93
O=C(O)CC(O)CCc1ccc(-c2ccccc2)cc1 (single isomer, unassigned) | Macrophage metalloelastase (Homo sapiens) | pIC50 | 6.47
